Molecular target: Mitogen-activated protein kinase 1 (Homo sapiens)
Sequence (P28482 whole entry): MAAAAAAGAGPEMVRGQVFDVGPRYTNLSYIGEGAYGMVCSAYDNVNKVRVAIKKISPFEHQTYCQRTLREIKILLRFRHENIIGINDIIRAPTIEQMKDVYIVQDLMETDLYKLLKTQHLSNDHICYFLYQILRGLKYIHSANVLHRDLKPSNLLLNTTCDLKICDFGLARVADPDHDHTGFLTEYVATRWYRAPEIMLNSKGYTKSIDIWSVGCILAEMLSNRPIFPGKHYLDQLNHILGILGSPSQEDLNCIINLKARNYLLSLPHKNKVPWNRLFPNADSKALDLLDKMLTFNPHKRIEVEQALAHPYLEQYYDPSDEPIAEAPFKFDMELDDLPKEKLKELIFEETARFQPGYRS
Assay: The assay was carried out in 20 mM HEPES [pH 7.5], 5 mM MgCl2, 1 mM DTT, 0.01% Tween-20, 0.05% BSA using 0.02 nM ERK2, 400 nM ERKtide peptide and 35 uM ATP (all concentrations are final in the reaction) in a total volume of 10.25 uL. A 16-point, half-log dilution series of compounds at 41x final concentration was used for generating IC50 curves. Compound dilution series were prepared in 100% DMSO. ERK2 was preincubated with compounds for 30 minutes at ambient temperature. Reaction was initiated by addition of a substrate cocktail of ERKtide peptide and ATP and was allowed to proceed for 4 hours at ambient temperature. Reaction was terminated by addition of 10 uL of a 2x stop buffer consisting of 100 mM Tris-Cl [pH 7.5], 25 mM EDTA, 0.01% Tween 20, 20 ug/mL of AlphaScreen Protein A Acceptor Beads, 20 ug/mL of Streptavidin Donor Beads (PerkinElmer, Waltham, Mass.), and 1:1000 dilution phospho-EGF Receptor (Thr669) antibody (Cat #8808, Cell Signaling Technology, Danvers, Mass.). Terminated reactions were read, after overnight incubation in the dark, on an EnVision Multilabel Plate Reader (PerkinElmer, Waltham, Mass.), with excitation and emission wavelengths set to 680 nm and 570 nm, respectively. IC50 values were determined using a four-parameter fit.
Cut-off 1 nM on IC50: below means t, at or above means f.

// known answers, use as guide
{"Compound Structure String": "Nc1ncc(N2CCOCC2)cc1-c1ccc(C(=O)N[C@H](CO)c2ccccc2)c(F)c1", "Assay Target": "Mitogen-activated protein kinase 1 (Homo sapiens)", "Assigned Class": "f"}
{"Compound Structure String": "Cc1nn(C(F)F)cc1-c1cnc(N)c(-c2ccc(C(=O)N[C@H](CO)c3cccc(Cl)c3)c(F)c2)c1", "Assay Target": "Mitogen-activated protein kinase 1 (Homo sapiens)", "Assigned Class": "t"}
{"Compound Structure String": "Cn1ccc(-c2cnc(N)c(-c3ccc(C(=O)N[C@H](CO)c4cccc(Cl)c4)c(F)c3)c2)n1", "Assay Target": "Mitogen-activated protein kinase 1 (Homo sapiens)", "Assigned Class": "t"}
{"Compound Structure String": "Nc1ncc([C@H]2CC[C@@H](O)CC2)nc1-c1ccc(C(=O)NCc2cccc(Cl)n2)c(F)c1", "Assay Target": "Mitogen-activated protein kinase 1 (Homo sapiens)", "Assigned Class": "f"}
{"Compound Structure String": "Nc1ncc([C@H]2CC[C@H](O)CC2)nc1-c1ccc(C(=O)NCc2cccc(Cl)n2)c(F)c1", "Assay Target": "Mitogen-activated protein kinase 1 (Homo sapiens)", "Assigned Class": "f"}
{"Compound Structure String": "Nc1cc(-c2cc(C3CCOCC3)cnc2N)ccc1C(=O)N[C@H](CO)c1ccccc1", "Assay Target": "Mitogen-activated protein kinase 1 (Homo sapiens)", "Assigned Class": "f"}

Input "CS(=O)(=O)[C@H]1CC[C@H](c2cnc(N)c(-c3ccc(C(=O)NCc4ccccc4)c(F)c3)n2)CC1" ; condition: IC50 strictly below 1 nM. Does it hold?
f

Where these numbers come from: ChEMBL document CHEMBL3886495
